Each recorded value in this set is attributed to the supplement of paper PMC9112550.

- System: Escherichia coli TOP10;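 also: peptides expressed intracellularly from a pBAD plasmid library in pooled LB shake-flask culture, induced with 0.3% L-arabinose, DNA abundance read by NGS, three biological replicates, DESeq2 with apeglm shrinkage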
- assay-info: shrunken log2 fold change of peptide-encoding DNA abundance (4.5 h post-induction vs induction); higher = less antimicrobial activity (less host growth inhibition)
- measurement-parameters: time post-induction: 4.5 h; library: site-saturation at positions 5, 18, 19, 20
endpoint-name: shrunken log2 fold change
Give bare numbers.

Quick batch: shrunken log2 fold change for everything below.
1. RRIRDRPPRLPRPRPRPSYEPRP
2. RRIRLRPPRLPRPRPRPGFWPRP
3. RRIRHRPPRLPRPRPRPIPNPRP
4. RRIRKRPPRLPRPRPRPFQLPRP
5. RRIRDRPPRLPRPRPRPMMEPRP
6. RRIRGRPPRLPRPRPRPVHFPRP
7. RRIRIRPPRLPRPRPRPICLPRP
8. RRIRNRPPRLPRPRPRPQDKPRP

Response line:
[0.175, 0.406, 0.101, 0.0661, 0.0314, 0.562, -0.197, 0.0859]
